target: T1, recombinant human αvβ5 integrin extracellular domains (human, UniProt P06756 1-992; P18084 1-719, Secreted glycoprotein heterodimer. It is biotinylated on the omitted Avitag, and an interchain disulfide sits in the omitted coiled-coils.); assay: AlphaLISA blocking of human vitronectin-GST binding
T1 construct: Soluble heterodimer co-expressed in Expi293 cells; also called hαvβ5; not shown: Alpha chain: acidic coiled-coil with cysteine and GG-Avitag; Beta chain: basic coiled-coil with cysteine and GG-Avitag
parameter: pIC50
Keep in mind that pIC50 stands for -log10 of concentration in molar terms.

control antibody abituzumab (mAb-24) (antibody, V domains shown) VH: QVQLQQSGGELAKPGASVKVSCKASGYTFSSFWMHWVRQAPGQGLEWIGYINPRSGYTEYNEIFRDKATMTTDTSTSTAYMELSSLRSEDTAVYYCASFLGRGAMDYWGQGTTVTVSS VL: DIQMTQSPSSLSASVGDRVTITCRASQDISNYLAWYQQKPGKAPKLLIYYTSKIHSGVPSRFSGSGSGTDYTFTISSLQPEDIATYYCQQGNTFPYTFGQGTKVEIKR    8.46

Exam item: Could you share which pIC50 value was measured for Ab-32 (antibody, V domains shown) VH: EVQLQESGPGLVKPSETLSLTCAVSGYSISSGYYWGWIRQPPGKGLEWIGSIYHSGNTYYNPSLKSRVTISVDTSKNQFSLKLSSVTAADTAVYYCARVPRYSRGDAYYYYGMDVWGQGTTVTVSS VL: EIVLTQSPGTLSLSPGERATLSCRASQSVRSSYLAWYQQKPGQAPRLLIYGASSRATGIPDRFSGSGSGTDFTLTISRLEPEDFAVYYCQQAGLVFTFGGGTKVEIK ?
Marked response: 7.59
